Test system: Wnt activity (Sp5-Luc reporter, SW480 colon carcinoma cells)
Test: Screening assay for Wnt activity: Sp5-Luc reporter gene assay in SW480 cells
Type: cell-based
Conditions: Homo sapiens, 42 h incubation, luminescence
pIC50: −log10 of the molar value.
Label Criterion met when pIC50 >= 7; otherwise Criterion not met.

CC(C)CC(=O)Nc1cncc(-c2ccc3[nH]nc(-c4nc5c(-c6ccc(F)s6)nccc5[nH]4)c3c2)c1 : Criterion met
CC(=O)c1ccc(-c2nccc3[nH]c(-c4n[nH]c5ccc(-c6cncc(NC(=O)C7CCCCC7)c6)cc45)nc23)s1 : Criterion not met
c1ccc(CNCc2cncc(-c3ccc4[nH]nc(-c5nc6c(-c7cccnc7)nccc6[nH]5)c4c3)c2)cc1 : Criterion met
CCCCC(=O)Nc1cncc(-c2ccc3[nH]nc(-c4nc5c(-c6cc(F)cc(NCCN(C)C)c6)nccc5[nH]4)c3c2)c1 : Criterion met
Fc1cccc(-c2nccc3[nH]c(-c4n[nH]c5ccc(-c6cncc(OCc7ccccc7)c6)cc45)nc23)c1 : Criterion not met
O=C(Nc1cncc(-c2ccc3[nH]nc(-c4nc5c(-c6ccc(F)s6)nccc5[nH]4)c3c2)c1)C1CCC1 : Criterion met
Cc1ccc(-c2nccc3[nH]c(-c4n[nH]c5ccc(-c6cncc(NC(=O)C7CCC7)c6)cc45)nc23)s1 : Criterion met
Fc1cccc(-c2nccc3[nH]c(-c4n[nH]c5ccc(-c6ccccn6)cc45)nc23)c1 : Criterion not met
CN(C)Cc1cncc(-c2cc3c(-c4nc5c(-c6ccsc6)nccc5[nH]4)n[nH]c3cc2F)c1 : Criterion not met
c1ccc(CNCc2cncc(-c3ccc4[nH]nc(-c5nc6c(-c7ccsc7)nccc6[nH]5)c4c3)c2)cc1 : Criterion met

Would you say "CC(C)(C)C(=O)Nc1cncc(-c2ccc3[nH]nc(-c4nc5c(-c6cccnc6)nccc5[nH]4)c3c2)c1" shows pIC50 at minimum 7? Criterion met

Would you say "CCNCc1cncc(-c2ccc3[nH]nc(-c4nc5c(-c6ccccn6)nccc5[nH]4)c3c2)c1" shows pIC50 at minimum 7? Criterion not met

Would you say "CN(C)Cc1cncc(-c2cc3c(-c4nc5c(-c6cccc(F)c6)nccc5[nH]4)n[nH]c3cc2F)c1" shows pIC50 at minimum 7? Criterion not met

###

System: primary human fibroblasts derived from IPF patients (LL29 cells)
Experiment: Inhibition of fibrosis: TGF-β1-treated primary human fibroblasts from IPF patients (LL29), αSMA staining
Format: cell-based
Details: Fibroblast, 96 h, TGF-β1 20 ng/mL, 4 days, % αSMA-positive cells
Readout type: EC50 (nM)
One number for each entry, in nM.

Here is how some compounds turned out for EC50.
O=C(CC1CCNCC1)Nc1cncc(-c2ccc3[nH]nc(-c4nc5c(-c6cccc(F)c6)nccc5[nH]4)c3c2)c1 [Compound 1777] : 107
Fc1cccc(-c2nccc3[nH]c(-c4n[nH]c5ccc(-c6cncc(OC7CCCCC7)c6)cc45)nc23)c1 [Compound 1775] : 9
O=C(Nc1cncc(-c2ccc3[nH]nc(-c4nc5c(-c6ccsc6)nccc5[nH]4)c3c2)c1)C1CCCC1 [Compound 255] : 1220
O=C(Nc1cncc(-c2ccc3[nH]nc(-c4nc5c(-c6ccoc6)nccc5[nH]4)c3c2)c1)C1CCC1 [Compound 280] : 1240

Batch: EC50 for all items listed.
1. CCCC(=O)Nc1cncc(-c2ccc3[nH]nc(-c4nc5c(-c6ccccc6F)nccc5[nH]4)c3c2)c1 [Compound 69]
2. CN(C)CC(=O)Nc1cncc(-c2ccc3[nH]nc(-c4nc5c(-c6cccc(F)c6)nccc5[nH]4)c3c2)c1 [Compound 2251]
3. Fc1ccc(-c2nccc3[nH]c(-c4n[nH]c5ccc(-c6cncc(CN7CCCC7)c6)cc45)nc23)s1 [Compound 326]
4. CCC(=O)Nc1cncc(-c2ccc3[nH]nc(-c4nc5c(-c6cccc(F)c6)nccc5[nH]4)c3c2)c1 [Compound 1]

1. 74
2. 75
3. 940
4. 20

###

Give measured log10(EC50) for each item. Keep answers brief.
Tested on: primary human fibroblasts derived from IPF patients (LL29 cells)
Assay: Inhibition of fibrosis: TGF-β1-treated primary human fibroblasts from IPF patients (LL29), αSMA staining
Assay type: cell-based
Details: Fibroblast, 96 h, TGF-β1 20 ng/mL, 4 days, % αSMA-positive cells
Values below are the log10 of the recorded EC50, with nM as the unit.

Here is how some molecules turned out for log10(EC50).
O=C(Nc1cncc(-c2ccc3[nH]nc(-c4nc5c(-c6cccs6)nccc5[nH]4)c3c2)c1)C1CCCC1 : 2.63
CC(C)(C)CC(=O)Nc1cncc(-c2ccc3[nH]nc(-c4nc5c(-c6ccccc6F)nccc5[nH]4)c3c2)c1 : 0.95

Batch: log10(EC50) for all items listed.
1. CS(=O)(=O)NCc1cc(F)cc(-c2nccc3[nH]c(-c4n[nH]c5ccc(-c6cncnc6)cc45)nc23)c1
2. CCC(=O)Nc1cncc(-c2ccc3[nH]nc(-c4nc5c(-c6cccs6)nccc5[nH]4)c3c2)c1

[1.43, 1.79]

###

Give measured EC50 for each item. Keep answers brief.
Tested on: primary human fibroblasts derived from IPF patients (LL29 cells)
Test: Inhibition of fibrosis: TGF-β1-treated primary human fibroblasts from IPF patients (LL29), αSMA staining
Format: cell-based
Conditions: Fibroblast, 96 h, TGF-β1 20 ng/mL, 4 days, % αSMA-positive cells
One number for each entry, in nM.

CC(C)Nc1cncc(-c2ccc3[nH]nc(-c4nc5c(-c6ccoc6)nccc5[nH]4)c3c2)c1 : 9
O=C(Cc1ccccc1)Nc1cncc(-c2ccc3[nH]nc(-c4nc5c(-c6ccsc6)nccc5[nH]4)c3c2)c1 : 203
Fc1cccc(-c2nccc3[nH]c(-c4n[nH]c5ccc(-c6cnccn6)cc45)nc23)c1 : 9

Batch: EC50 for all items listed.
1. c1cncc(-c2nccc3[nH]c(-c4n[nH]c5ccc(-c6cncc(CN7CCCCC7)c6)cc45)nc23)c1
2. c1cncc(-c2ccc3[nH]nc(-c4nc5c(-c6cccnc6)nccc5[nH]4)c3c2)c1
3. CN(C)c1cncc(-c2ccc3[nH]nc(-c4nc5c(-c6cccs6)nccc5[nH]4)c3c2)c1
4. O=C(Nc1cncc(-c2ccc3[nH]nc(-c4nc5c(-c6cccc(F)c6)nccc5[nH]4)c3c2)c1)C1CC1

388
9
36
9

###

Give measured pEC50 for each item. Keep answers brief.
System: primary human fibroblasts derived from IPF patients (LL29 cells)
Test: Inhibition of fibrosis: TGF-β1-treated primary human fibroblasts from IPF patients (LL29), αSMA staining
Assay type: cell-based
Settings: Fibroblast, 96 h, TGF-β1 20 ng/mL, 4 days, % αSMA-positive cells
Excerpt: The above synthesized compounds were screened using primary human fibroblasts (derived from IPF patients) treated with TGF-β1 to determine their ability to inhibit the fibrotic process. […]
Answers are plain numbers, as −log10 of the molar value.

Fc1cccc(-c2nccc3[nH]c(-c4n[nH]c5ccc(-c6ccncc6)cc45)nc23)c1 : 5.00

Batch: pEC50 for all items listed.
1. CC(C)CC(=O)Nc1cncc(-c2ccc3[nH]nc(-c4nc5c(-c6cccc(F)c6)nccc5[nH]4)c3c2)c1
2. Cc1ccc(-c2nccc3[nH]c(-c4n[nH]c5ccc(-c6cncc(NC(=O)CC(C)(C)C)c6)cc45)nc23)s1

8.05
7.07

###

Test system: primary human fibroblasts derived from IPF patients (LL29 cells)
Test: Inhibition of fibrosis: TGF-β1-treated primary human fibroblasts from IPF patients (LL29), αSMA staining
Type: cell-based
Conditions: Fibroblast, 96 h, TGF-β1 20 ng/mL, 4 days, % αSMA-positive cells
Give measured pEC50 for each item. Keep answers brief.
Numbers only, as −log10 of the molar value.

CCNCc1cncc(-c2ccc3[nH]nc(-c4nc5c(-c6ccccn6)nccc5[nH]4)c3c2)c1 [Compound 136] : 8.05
c1ccc(CNCc2cncc(-c3ccc4[nH]nc(-c5nc6c(-c7ccsc7)nccc6[nH]5)c4c3)c2)cc1 [Compound 257] : 8.05
CC(C)Nc1cncc(-c2ccc3[nH]nc(-c4nc5c(-c6cccnc6)nccc5[nH]4)c3c2)c1 [Compound 90] : 8.05
CCCC(=O)Nc1cncc(-c2ccc3[nH]nc(-c4nc5c(-c6cc(F)cc(CNS(C)(=O)=O)c6)nccc5[nH]4)c3c2)c1 [Compound 407] : 7.72
CN(C)Cc1cncc(-c2ccc3[nH]nc(-c4nc5c(-c6cccs6)nccc5[nH]4)c3c2)c1 [Compound 299] : 6.22
CCCC(=O)Nc1cncc(-c2ccc3[nH]nc(-c4nc5c(-c6ccsc6)nccc5[nH]4)c3c2)c1 [Compound 251] : 7.74

Record lookup: for primary human fibroblasts derived from IPF patients (LL29 cells), what pEC50 belongs to CCNCc1cncc(-c2ccc3[nH]nc(-c4nc5c(-c6cc(F)cc(NCCN(C)C)c6)nccc5[nH]4)c3c2)c1 [Compound 422] ? 6.97

###

Test system: Wnt activity (Sp5-Luc reporter, SW480 colon carcinoma cells)
Test: Screening assay for Wnt activity: Sp5-Luc reporter gene assay in SW480 cells
Assay type: cell-based
Conditions: Homo sapiens, 42 h incubation, luminescence
Description: The screening assay for Wnt activity is described as follows. […] SW480 colon carcinoma cells were transduced with a lentiviral vector expressing luciferase with a human Sp5 promoter consisting of a sequence of eight TCF/LEF binding sites. […] Following incubation, the growth medium was removed and 50 μl of BrightGlo luminescence reagent (Promega) was added to each well of the 96-well assay plates. […]
pIC50: −log10 of the molar value.
Label 1 (yes) when pIC50 >= 8; otherwise 0 (no).

Would you say O=C(Nc1cncc(-c2ccc3[nH]nc(-c4nc5c(N6CCCCC6)nccc5[nH]4)c3c2)c1)C1CC1 [Compound 175] shows pIC50 at minimum 8? 0 (no)
